- Target Under Test: complement protein C3 of cynomolgus monkey plasma (cynomolgus monkey)
- Run Description: cell-based or functional assay
Collected C3 destruction ED50 (mg/kg), in vivo, intravenous injection, cynomolgus monkey values appear next to each entry.
Express the result in mg/kg but write the number alone.

Look over these answered cases.
[[record]]
binder = "Q38H/I41A/D60bV/F60eR/Y60gW/F97T/ins97aE/T98G/F99L/C122S/G151N/Q175L/Q192D (enzyme) VVGGTDADEGEWPWQVSLHALGHGHACGASLISPNWLVSAAHCYIDVRGRRWSDPTQWTAFLGLHDQSQRSAPGVQERRLKRIISHPFFNDTEGLDYDIALLELEKPAEYSSMVRPISLPDASHVFPAGKAIWVTGWGHTQYGGTNALILQKGEIRVINQTTCENLLPQLITPRMMCVGFLSGGVDSCDGDSGGPLSSVEADGRIFQAGVVSWGDGCAQRNKPGVYTRLPLFRDWIKENTGV"
measured_result = 0.2

[[record]]
binder = "Q38H/I41A/D60bT/F60eK/Y60gW/F97T/ins97aE/T98G/F99L/C122S/G151N/Q175L/Q192D (enzyme) VVGGTDADEGEWPWQVSLHALGHGHACGASLISPNWLVSAAHCYIDTRGKRWSDPTQWTAFLGLHDQSQRSAPGVQERRLKRIISHPFFNDTEGLDYDIALLELEKPAEYSSMVRPISLPDASHVFPAGKAIWVTGWGHTQYGGTNALILQKGEIRVINQTTCENLLPQLITPRMMCVGFLSGGVDSCDGDSGGPLSSVEADGRIFQAGVVSWGDGCAQRNKPGVYTRLPLFRDWIKENTGV"
measured_result = 0.2


// moving on: another record for C3 destruction ED50 (mg/kg), in vivo, intravenous injection, cynomolgus monkey
The recorded C3 destruction ED50 (mg/kg), in vivo, intravenous injection, cynomolgus monkey for entry Q38H/I41S/D60bT/F60eS/Y60gW/D96K/F97G/ins97aV/T98P/F99L/C122S/G151H/Q175L/Q192D (enzyme) VVGGTDADEGEWPWQVSLHALGHGHSCGASLISPNWLVSAAHCYIDTRGSRWSDPTQWTAFLGLHDQSQRSAPGVQERRLKRIISHPFFNKGVPLDYDIALLELEKPAEYSSMVRPISLPDASHVFPAGKAIWVTGWGHTQYGGTHALILQKGEIRVINQTTCENLLPQLITPRMMCVGFLSGGVDSCDGDSGGPLSSVEADGRIFQAGVVSWGDGCAQRNKPGVYTRLPLFRDWIKENTGV equals 0.07

Source: patent US20240018502A1
